Biological target: SARS-CoV-2 3CLpro (Severe acute respiratory syndrome coronavirus 2, UniProt P0DTD1)
Assay: biochemical
Type: biochemical
Details: sheet LOPAC_screen_w_protease; primary screen at 5 µM; mean of two replicates
Lab note - cut at 9 for mean (LOPAC screen with protease): 1 if strictly below, -1 if not.

Solved entries:
Cl.NC[C@@H]1O[C@H](C23CC4CC(CC(C4)C2)C3)Cc2c1ccc(O)c2O [A-77636 hydrochloride]	-1
O=C1C(SCCO)=C(SCCO)C(=O)c2ccccc21 [NSC 95397, reference compound]	-1

Regarding CC(N)C(O)c1ccc(O)c(O)c1 (single isomer, unassigned; (-)) [(-)-alpha-Methylnorepinephrine] , kindly confirm whether its mean (LOPAC screen with protease) is beneath 9. 1

Would you mind doing Cl.NCCS [Cysteamine hydrochloride] as well? 1

Would you mind doing `O=c1[nH]c2cc(C(F)(F)F)ccc2n1-c1cc(C(F)(F)F)ccc1O` as well? 1

Would you mind doing CN(N=O)c1ccc(O)c(O)c1 [Me-3,4-dephostatin, reference compound] as well? -1

Would you mind doing `C[C@](N)(Cc1ccc(O)c(O)c1)C(=O)O` as well? 1

Would you mind doing C[C@@]12N[C@@H](Cc3ccccc31)c1ccccc12.O=C(O)/C=C\C(=O)O [(-)-MK-801 hydrogen maleate] as well? 1
